Consider the following compounds; for each one, report its IC50.
Target: AKR1C2 (Homo sapiens)
Sequence (P52895 1-323): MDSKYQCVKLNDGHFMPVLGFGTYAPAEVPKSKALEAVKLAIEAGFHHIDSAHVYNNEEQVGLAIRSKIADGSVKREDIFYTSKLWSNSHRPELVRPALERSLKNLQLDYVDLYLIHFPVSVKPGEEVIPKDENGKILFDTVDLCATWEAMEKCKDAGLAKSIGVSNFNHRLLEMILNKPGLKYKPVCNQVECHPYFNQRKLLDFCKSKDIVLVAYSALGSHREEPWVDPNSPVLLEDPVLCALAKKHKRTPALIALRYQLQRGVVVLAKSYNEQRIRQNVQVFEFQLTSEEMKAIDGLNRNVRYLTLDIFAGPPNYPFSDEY
Settings: read-out: 1C2 IC50; recombinant AKR1C2; S-tetralol 15 μM (= Km); NADP+
Write your answer as a measured quantity: the number, then the unit.

I'm curious: which IC50 was measured for CC(C)(C)OC(=O)C=Cc1ccc(OC(=O)CCc2ccccc2)cc1 (mixture of isomers) tested on AKR1C2 (Homo sapiens)?
27 µM

I'm curious: which IC50 was measured for O=C(O)C=Cc1ccc(OC(=O)CCc2ccccc2)cc1 (mixture of isomers) tested on AKR1C2 (Homo sapiens)?
25 µM

I'm curious: which IC50 was measured for COc1cc(/C=C/C(=O)O)ccc1O tested on AKR1C2 (Homo sapiens)?
421 µM

I'm curious: which IC50 was measured for O=C(O)/C=C/c1cccc(O)c1 tested on AKR1C2 (Homo sapiens)?
389 µM

I'm curious: which IC50 was measured for O=C(O)/C=C/c1ccc(OC(=O)CCc2ccccc2)cc1 tested on AKR1C2 (Homo sapiens)?
88 µM

###

molecular target: AKR1C3 (Homo sapiens, UniProt P42330); settings: selectivity, ratio of IC50 values AKR1C2 to AKR1C3
Sequence (P42330 whole entry): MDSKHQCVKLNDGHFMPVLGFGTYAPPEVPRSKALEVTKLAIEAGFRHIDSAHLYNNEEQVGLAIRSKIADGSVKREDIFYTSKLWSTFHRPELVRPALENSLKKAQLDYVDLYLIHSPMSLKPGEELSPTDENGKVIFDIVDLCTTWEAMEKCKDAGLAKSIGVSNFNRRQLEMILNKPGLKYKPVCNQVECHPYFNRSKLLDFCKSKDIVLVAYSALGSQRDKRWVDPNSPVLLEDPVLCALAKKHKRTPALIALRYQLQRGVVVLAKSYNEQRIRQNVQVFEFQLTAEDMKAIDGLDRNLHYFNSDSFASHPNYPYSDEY
Consider the following compounds; for each one, report its IC50 Ratio 1C2:1C3.
Output spec: single numeric token, no unit.

Suppose we examine the compound O=C(O)/C=C/c1cccc(O)c1 [Compound 15, m-coumaric acid] ; what IC50 Ratio 1C2:1C3 value has been reported?
5

Suppose we examine the compound CC(C)(C)OC(=O)C=Cc1ccc(OC(=O)CCc2ccccc2)cc1 (mixture of isomers) [Compound 13] ; what IC50 Ratio 1C2:1C3 value has been reported?
0.04

Suppose we examine the compound O=C(O)C=Cc1ccc(OC(=O)CCc2ccccc2)cc1 (mixture of isomers) [Compound 10] ; what IC50 Ratio 1C2:1C3 value has been reported?
11

Suppose we examine the compound O=C(O)/C=C/c1ccc(OC(=O)CCc2ccccc2)cc1 [Compound 8, (2E)-3-prop-2-enoic acid] ; what IC50 Ratio 1C2:1C3 value has been reported?
19

Suppose we examine the compound CC(C)=CCc1cc(/C=C/C(=O)OC(C)(C)C)ccc1OC(=O)CCc1ccccc1 [Compound 7] ; what IC50 Ratio 1C2:1C3 value has been reported?
0.3

Suppose we examine the compound COc1cc(/C=C/C(=O)O)ccc1O [Compound 16, ferulic acid] ; what IC50 Ratio 1C2:1C3 value has been reported?
20

Suppose we examine the compound O=C(O)/C=C/c1ccc(O)cc1 [Compound 14, p-coumaric acid] ; what IC50 Ratio 1C2:1C3 value has been reported?
7

Suppose we examine the compound O=C(O)/C=C/c1cccc(OC(=O)CCc2ccccc2)c1 [Compound 9] ; what IC50 Ratio 1C2:1C3 value has been reported?
28

Suppose we examine the compound O=C(O)/C=C/c1ccc(OC(=O)c2ccccc2)cc1 [Compound 11] ; what IC50 Ratio 1C2:1C3 value has been reported?
20

Suppose we examine the compound O=C(O)/C=C/c1ccc(OC(=O)c2ccncc2)cc1 [Compound 12] ; what IC50 Ratio 1C2:1C3 value has been reported?
1
